Below, each entry is listed with its recorded inhibition at 10 µM.
- targetOrTestSystem: hDGAT1 (Homo sapiens, UniProt O75907)
- Construct: host or cells: Sf9 insect cells (baculovirus); microsomal preparation
- Sequence (O75907 1-488): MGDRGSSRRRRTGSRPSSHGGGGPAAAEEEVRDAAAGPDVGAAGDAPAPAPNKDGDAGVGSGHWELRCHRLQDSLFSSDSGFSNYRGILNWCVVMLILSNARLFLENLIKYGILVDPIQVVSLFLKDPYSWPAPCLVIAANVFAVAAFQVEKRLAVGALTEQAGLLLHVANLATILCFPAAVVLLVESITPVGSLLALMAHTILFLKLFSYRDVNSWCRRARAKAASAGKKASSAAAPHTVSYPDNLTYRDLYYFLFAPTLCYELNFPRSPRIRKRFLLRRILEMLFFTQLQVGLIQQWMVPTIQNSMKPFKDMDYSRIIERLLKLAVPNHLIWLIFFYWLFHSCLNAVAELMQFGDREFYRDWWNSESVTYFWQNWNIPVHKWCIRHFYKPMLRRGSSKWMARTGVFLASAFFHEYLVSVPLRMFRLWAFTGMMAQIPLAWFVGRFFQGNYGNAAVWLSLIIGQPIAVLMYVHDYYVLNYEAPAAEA
- testDescription: In-vitro DGAT1 assay (hDGAT1 microsomes from Sf9 cells, 14C oleoyl CoA, triglyceride formation)
- Type: biochemical
- conditionNotes: At 10 μM
reportedProperty: inhibition at 10 µM

1. COC(=O)C(C)(C)NC(=O)c1cc(-c2ccc(NC(=O)Nc3ccccc3)cc2)no1 [Example 121]	50 to 75%
2. COC(=O)[C@@H](NC(=NO)c1cc(-c2ccc(Nc3nc4ccc(F)cc4s3)cc2)no1)c1ccccc1 [Example 56]	0 to 50%
3. CC(C)C(NC(=O)c1cc(-c2ccc(NC(=O)Nc3ccccc3F)cc2)no1)C(=O)O (stereo not shown) [Example 106]	75 to 100%
4. COC(=O)C(C)(C)NC(=O)c1cc(-c2ccc(NC(=O)Nc3ccc(F)cc3)cc2)no1 [Example 117]	50 to 75%
5. CCC(C)[C@H](NC(=O)c1cc(-c2ccc(NC(=O)Nc3ccccc3)cc2)no1)C(=O)O (stereo partly shown) [Example 79]	75 to 100%
6. COC(=O)C(NC(=O)c1cc(-c2ccc(NC(=O)Nc3ccc(F)cc3F)cc2)no1)C(C)C (stereo not shown) [Example 111]	50 to 75%
7. COC(=O)C(NC(=O)c1cc(-c2ccc(NC(=O)Nc3ccccc3F)c(F)c2)no1)C(C)C (stereo not shown) [Example 147]	50 to 75%
8. O=C(O)[C@@H]1CCCN1C(=O)c1cc(-c2cccc(Nc3nc4ccc(F)cc4s3)c2)no1 [Example 35]	0 to 50%
9. COC(=O)[C@@H](NC(=O)c1cc(-c2ccc(Nc3nc4ccc(F)cc4s3)cc2)no1)C(C)C [Example 5]	50 to 75%
10. COC(=O)[C@@H]1CCCN1C(=S)c1cc(-c2cccc(Nc3nc4ccc(F)cc4s3)c2)no1 [Example 36]	50 to 75%
11. O=C(Nc1ccc(F)cc1)Nc1ccc(-c2cc(C(=O)NC3(C(=O)O)CCCC3)on2)cc1 [Example 120]	50 to 75%
12. COC(=O)C(CC(C)C)NC(=O)c1cc(-c2ccc(NC(=O)NCc3ccccc3)cc2)no1 (stereo not shown) [Example 109]	0 to 50%
13. COC(=O)C(CC(C)C)NC(=O)c1cc(-c2cc(NC(=O)Nc3ccc(F)cc3)ccc2C)no1 (stereo not shown) [Example 131]	0 to 50%
14. CC(C)[C@H](NC(=O)c1cc(-c2ccc(NC(=O)Nc3ccc(F)cc3)cc2)no1)C(=O)O [Example 85]	75 to 100%
15. O=C(O)C1(NC(=NO)c2cc(-c3ccc(Nc4nc5ccc(F)cc5s4)cc3)no2)CCCC1 [Example 66]	0 to 50%
16. COC(=O)C(C)NC(=O)c1cc(-c2ccc(NC(=O)Nc3ccc(F)cc3)cc2)no1 (stereo not shown) [Example 115]	0 to 50%
17. CCOC(=O)c1cc(-c2cccc(Nc3nc4ccc(F)cc4s3)c2)no1 [Example 20]	0 to 50%
18. CC(C)C(NC(=O)c1cc(-c2ccc(NC(=O)Nc3ccc(F)cc3F)c(F)c2)no1)C(=O)O (stereo not shown) [Example 150]	75 to 100%
19. O=C(NC1(C(=O)O)CCCC1)c1cc(-c2ccc(Nc3nc4ccc(F)cc4s3)cc2)no1 [Example 63]	0 to 50%
20. COC(=O)[C@@H](NC(=S)c1cc(-c2cccc(Nc3nc4ccc(F)cc4s3)c2)no1)C(C)C [Example 24]	0 to 50%
21. COC(=O)[C@H](NC(=S)c1cc(-c2ccc(Nc3nc4ccc(F)cc4s3)cc2)no1)C(C)C [Example 39]	0 to 50%
22. Cc1cc(-c2cc(C(=O)NC(C)C(=O)O)on2)ccc1NC(=O)Nc1c(F)cccc1F (stereo not shown) [Example 102]	0 to 50%
23. COC(=O)[C@H](CC(C)C)NC(=O)c1cc(-c2ccc(NC(=O)Nc3ccc(F)cc3)cc2)no1 [Example 86]	0 to 50%
24. COC[C@H](NC(=NO)c1cc(-c2ccc(Nc3nc4ccc(F)cc4s3)cc2)no1)C(=O)OC [Example 16]	50 to 75%
25. COC[C@H](NC(=S)c1c(-c2ccc(Nc3nc4ccc(F)cc4s3)cc2)noc1-c1ccccc1)C(=O)OC [Example 74]	0 to 50%
26. CC(C)(NC(=O)c1cc(-c2ccc(NC(=O)Nc3ccccc3)cc2)no1)C(=O)O [Example 122]	75 to 100%
27. COC(=O)[C@@H](NC(=S)c1c(-c2ccc(Nc3nc4ccc(F)cc4s3)cc2)noc1-c1ccccc1)C(C)C [Example 72]	0 to 50%
28. O=C(O)[C@@H](NC(=NO)c1cc(-c2ccc(Nc3nc4ccc(F)cc4s3)cc2)no1)c1ccccc1 [Example 57]	0 to 50%
29. COC(=O)[C@H](CC(C)C)NC(=S)c1cc(-c2ccc(Nc3nc4ccc(F)cc4s3)cc2)no1 [Example 48]	0 to 50%
30. CC(C)[C@@H](NC(=NO)c1cc(-c2ccc(Nc3nc4ccc(F)cc4s3)cc2)no1)C(=O)O [Example 41]	0 to 50%
31. NC(=S)c1cc(-c2ccc(Nc3nc4ccc(F)cc4s3)cc2)no1 [Example 4]	0 to 50%
